# study.system: T1, hErbB3.mFc (soluble dimeric human ErbB3 extracellular domain fused to mouse Fc) (human)
# T1 construct: called dimeric
# T1 chain: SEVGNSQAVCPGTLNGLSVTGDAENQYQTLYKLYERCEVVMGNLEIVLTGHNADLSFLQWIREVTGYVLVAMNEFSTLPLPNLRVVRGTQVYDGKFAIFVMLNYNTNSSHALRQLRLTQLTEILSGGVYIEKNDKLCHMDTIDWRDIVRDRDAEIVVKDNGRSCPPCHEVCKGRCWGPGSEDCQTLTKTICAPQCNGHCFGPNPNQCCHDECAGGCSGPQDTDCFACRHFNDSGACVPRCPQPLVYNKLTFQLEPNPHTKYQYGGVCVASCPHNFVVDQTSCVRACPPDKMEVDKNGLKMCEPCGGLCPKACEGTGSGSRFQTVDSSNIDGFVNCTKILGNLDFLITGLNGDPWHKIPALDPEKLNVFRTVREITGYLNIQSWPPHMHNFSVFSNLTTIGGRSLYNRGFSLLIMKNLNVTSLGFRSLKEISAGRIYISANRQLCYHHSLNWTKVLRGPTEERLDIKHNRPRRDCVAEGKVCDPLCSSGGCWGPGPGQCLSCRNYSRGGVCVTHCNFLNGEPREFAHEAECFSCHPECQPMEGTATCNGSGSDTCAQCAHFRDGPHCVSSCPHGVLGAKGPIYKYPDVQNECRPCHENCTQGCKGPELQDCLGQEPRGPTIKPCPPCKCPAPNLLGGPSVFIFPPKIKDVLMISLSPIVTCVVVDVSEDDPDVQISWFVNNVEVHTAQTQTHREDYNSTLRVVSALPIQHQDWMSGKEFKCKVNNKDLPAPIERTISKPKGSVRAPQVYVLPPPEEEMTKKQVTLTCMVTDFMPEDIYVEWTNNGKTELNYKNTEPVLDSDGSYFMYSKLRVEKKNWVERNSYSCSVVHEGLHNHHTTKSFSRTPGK
# test.protocol: SPR (Biacore), 25 C, mAb capture format
Here the recorded koff is given for each entry.
experimental.readout: koff

H4H2138P (antibody, V domains shown, Fully human, human IgG4 Fc (H4H prefix)) VH: QVQLQESGPGLVKPSQTLSLTCTVSGGSINSGGYYWSWIRQHPGKGLEWIGYISYSGNTNYNPSLKSRVTISVDTSKNQFSLTLTSVTAADTAVYYCARDSDVDTGLVDGFDVWGQGTMVTVSS VL: DIVMTQSPSSVSASVGDRVTITCRASQGVSSWLAWYQQKPGKAPKLLIYTTSSLQSGVPSRFSGSGSGTDFTLTISSLQPEDFATYYCQQSNSFPFTFGPGTKVEIK
5.46e-06 s⁻¹
H4H2102P (antibody, V domains shown, Fully human, human IgG4 Fc (H4H prefix)) VH: EVQLVESGGGLVQPGGSLRLSCAASGFTFSNYDIHWVRQATGKGLEWVSAIGPAGDTYYSDSVKGRFTISREDAKNSLYLQMSSLRAGDTAVYYCASEGIAVRPDDYYGMDVWGQGTTVTVSA VL: DIQLTQSPSFLSASVGDRVTITCWASQDITSYLAWYQKKPGKAPKLLIYAASTLQSGVPSRFSGSGSGTEFTLTISSLQPEDFAAYYCQQLNSYPLTFGGGTKVDIKR
2.26e-06 s⁻¹
H4H2151P (antibody, V domains shown, Fully human, human IgG4 Fc (H4H prefix)) VH: QVQLVESGGGVVQPGRSLRLSCAASGFTFSNYGMHWVRQAPGKGLEWVARIWYDGSNKYYADSVKGRFTISRDSSKNTLYLQMNSLRAEDTAVYYCAREGEQNLDYYPLDVWGQGTTVTVSS VL: DIVMTQSPSSLSASVGDRVTITCRASQDIRNDLGWYQQKPGKAPKLLIYAASSLQTGVPSRFSGSVSGTDFTLTISSLQPEDFATYYCLQDYTYPLTFGGGTKVEIK
9.52e-07 s⁻¹
